Assay: Quantitative highthroughput screen to assess conditional lethalithy of SEM cells grown in Human Plasma-Like Medium with dialyzed fetal bovine serum (HPLM+ds) (AID 1963882); note: nearly all actives have a fitted effect of over 35% in size
Settings: SEM B-ALL cells in HPLM+ds, CellTiter-Glo viability, 48 h; series mostly up to 45.8 µM
Experimental: Assay Provider: Jason Cantor Ph.D. Department of Biochemistry University of Wisconsin-Madison, Madison, WI, USA Chemical screening studies have identified drug sensitivities across hundreds of cancer cell lines but most putative therapeutics fail to translate. […] Sets of conditional anticancer compounds spanned phases of clinical development and included non-oncology drugs were assessed. […] 6; Detection; Luminescence, Viewlux PerkinElmer. […]
Inconclusive results are not listed. Calls of active or inactive are those of the source. Calls come from the whole dose curve; as a rule, active = well fitted cell-killing curve with a large enough effect; inconclusive = small, poorly fitted or top-dose-only effect, or effect the other way; inactive = no such curve, though single readings can be large or run the other way.
Hello, when you answer, please use one of the following outcomes: class 1 (active), class 0 (inactive)

Prompt: Which outcome was entered for the compound CC1(C)OC2=C(C(=O)c3ccccc3C2=O)[C@H](NCc2ccccc2)[C@H]1O in this test?
Response: class 1

Prompt: Which outcome was entered for the compound CC1(C)CC(=O)c2c(C(F)(F)F)nn(-c3ccc(C(N)=O)c(NC4CCC(OC(=O)CN)CC4)c3)c2C1 (centres undefined) in this test?
Response: class 1

* * *

assay: Viability qHTS for spleen associated tyrosine kinase inhibitor (SYKi) naive MV4-11 cells (AID 1963823); conditions: MV4-11 AML viability, CellTiter-Glo luminescence, 72 h; series mostly up to 45 µM; note: nearly all actives have a fitted effect of over 40% in size
Records with an inconclusive call do not appear. Calls of active or inactive are those of the source. Calls follow the shape of the dose curve; as a rule, active = well fitted cell-killing curve with a large enough effect; inconclusive = small, poorly fitted or top-dose-only effect, or effect the other way; inactive = no such curve, though single readings can be large or run the other way.
Hello, when you answer, please use one of the following outcomes: t (active), f (inactive)

[2H]C([2H])([2H])C(O)([C@@H](C)/C=C/[C@@H](C)[C@H]1CC[C@H]2/C(=C/C=C3C[C@@H](O)C[C@H](O)C3)CCC[C@]12C)C([2H])([2H])[2H]: t

Prompt: Which outcome was entered for the compound C=CC/C=C\C/C=C\CCCCCCCc1cccc(O)c1C(=O)O in this test?
Response: f

Prompt: Which outcome was entered for the compound CC(O)/C=C/C1(O)C(C)C(O)C(O[C@@H]2O[C@H](CO)[C@@H](O)[C@H](O)[C@H]2O)CC1(C)C (some centres undefined) in this test?
Response: f

Prompt: Which outcome was entered for the compound CC(C)Oc1ccc(C(=O)NC(CNC(=O)CN(C)C)Cc2ccc(-c3cn4cccc(C(C)O)c4n3)cc2)cc1Cl (centres undefined) in this test?
Response: t

* * *

experiment: Quantitative highthroughput screen to assess conditional lethalithy of NOMO1 cells grown in RPMI1640 with untreated serum (RPMI+s) (AID 1963876); conditions: NOMO1 AML cells in RPMI+serum, CellTiter-Glo viability, 48 h; series mostly up to 45.8 µM; note: nearly all actives have a fitted effect of over 35% in size;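 for viability: 100% = DMSO wells and 0% = empty wells without cells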
Results filed as inconclusive are left out. Activity calls are given as the source filed them. Calls come from the whole dose curve; as a rule, active = well fitted cell-killing curve with a large enough effect; inconclusive = small, poorly fitted or top-dose-only effect; inactive = flat fitted curve, though single readings scatter.
Hello, when you answer, please use one of the following outcomes: t for active, f for inactive

Clc1cccc(-n2nnnc2NCc2ccccc2Oc2ccccn2)c1Cl: f
C1=CCOCc2cc(ccc2OCCN2CCCC2)Nc2nccc(n2)-c2cccc(c2)OCC1: t
CN(C)C(=O)c1ccc(S(=O)(=O)c2ccc(NC(=O)[C@@](C)(O)C(F)(F)F)c(Cl)c2)cc1: t
FC(F)(F)c1ccc(Nc2nc3ccc(Oc4ccnc(-c5ncc(C(F)(F)F)[nH]5)c4)cc3[nH]2)cc1: f

Please find the next compound below.
Prompt: Which outcome was entered for the compound NC(=O)N1c2ccccc2CC(=O)c2ccccc21 in this test?
Response: f

* * *

test: Viability qHTS for spleen associated tyrosine kinase inhibitor (SYKi) naive MV4-11 cells (AID 1963823); settings: MV4-11 AML viability, CellTiter-Glo luminescence, 72 h; series mostly up to 45 µM; note: nearly all actives have a fitted effect of over 40% in size
Records with an inconclusive call do not appear. Calls of active or inactive are those of the source. Calls follow the shape of the dose curve; as a rule, active = well fitted cell-killing curve with a large enough effect; inconclusive = small, poorly fitted or top-dose-only effect, or effect the other way; inactive = no such curve, though single readings can be large or run the other way.
Hello, when you answer, please use one of the following outcomes: y = active, n = inactive

Please review the entries below; each comes with its answer.
O=C(OC[C@@]1(O)CO[C@@H](O[C@H]2[C@H](Oc3ccc(O)cc3)O[C@H](CO)[C@@H](O)[C@@H]2O)[C@@H]1O)c1ccc(O)cc1: n
N#Cc1ccc2ncnc(NCCc3ccccc3)c2c1: y
Cc1ccc(C)c(S(=O)(=O)n2cnc3ccccc32)c1: n
CC(NC(=O)[C@H](Cc1ccccc1)NC(=O)OCc1ccccc1)C(=O)CF (stereo not given in full): n
O=C(O)/C=C/c1ccc(O)c(O[C@@H]2O[C@H](CO)[C@@H](O)[C@H](O)[C@H]2O)c1: n

Prompt: Which outcome was entered for the compound C[C@@H](O)[C@H]1C(=O)N2C(C(=O)O)=C(S[C@@H]3CN[C@H](C(=O)N(C)C)C3)[C@H](C)[C@H]12 in this test?
Response: n

Prompt: Which outcome was entered for the compound Cc1ccc(NC(=O)N2CCN(c3nc(N)nc4sc(-c5cccnc5)nc34)CC2)cc1 in this test?
Response: y

* * *

test: Cellular viability qHTS for adrenocortical cancer (ACC) cell line SW-13 (AID 1963989); settings: SW-13 ACC cells viability, CellTiter-Glo, 48 h; stronger effect = lower value;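 note: cells grown in serum-free medium with ITS supplement; % is set by controls: 0 for no effect and ±100 for the full control effect; nearly all actives have a fitted effect of over 65% in size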
Records with an inconclusive call do not appear.
property_measured: activity (max response) (%)
Give the value in % but do not write % after it.

Examples with their reported activity (max response) follow.
CN(C)CCN(Cc1ccsc1)c1ccccn1: 6.67
[O-][n+]1cccc(/C(Cl)=N/OC[C@@H](O)CN2CCCCC2)c1: 9.86
O=C(Cc1cccc(OC(F)(F)F)c1)Nc1ccc(CCCCc2nnc(NC(=O)Cc3ccccn3)s2)nn1: 11.1
CCN(CC)CC(=O)OCC(=O)[C@@]1(O)CC[C@H]2[C@@H]3CCC4=CC(=O)CC[C@]4(C)[C@H]3[C@@H](O)C[C@@]21C: 11.9
O=C(O)c1ccc(CN2CCC(CN[C@@H]3C[C@H]3c3ccccc3)CC2)cc1: 7.26

Quick note, activity (max response) for CCCNC(C)(C)COC(=O)c1ccccc1 landed at -2.6

Quick note, activity (max response) for CCCC(O)C(CC)CO (centres undefined) landed at 8.36

Quick note, activity (max response) for COc1cc2c(cc1OC)[C@@H]1CC(=O)[C@@H](CC(C)C)CN1CC2 landed at -4.64

Quick note, activity (max response) for C[N+]1(CC2COC(c3ccccc3)(C3CCCCC3)O2)CCCCC1 (centres undefined) landed at -27.2

Quick note, activity (max response) for COc1cc2c(cc1OC)C(=O)CC2 landed at 12.7

Quick note, activity (max response) for CC(C)(C)c1ccc(C(=O)CCCCl)cc1 landed at 6.38

Quick note, activity (max response) for COc1ccc(-c2cc(=S)ss2)cc1 landed at -5.69

Quick note, activity (max response) for CCN(CC)C(=O)c1cccc(C)c1 landed at 6.94

* * *

assay: Quantitative highthroughput screen to assess conditional lethalithy of P12 Ichikawa cells grown in RPMI1640 with dialyzed fetal bovine serum (RPMI+ds) (AID 1963880); conditions: ATP luminescence, 48 h; P12-Ichikawa viability; series mostly up to 45.8 µM; note: nearly all actives have a fitted effect of over 35% in size;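 for viability: 100% = DMSO wells and 0% = empty wells on each plate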
Results filed as inconclusive are left out. Calls of active or inactive are those of the source. The call rests on the fitted dose curve; in most records, active means well fitted cell-killing curve with a large enough effect; inconclusive means small, poorly fitted or top-dose-only effect; inactive means flat fitted curve, though single readings scatter.
Hello, when you answer, please use one of the following outcomes: active, inactive

Please review the entries below; each comes with its answer.
N#CC(=C(N)Sc1ccccc1N)C(C#N)=C(N)Sc1ccccc1N: inactive
O=C(O)CCNC(=O)c1ccc(N=Nc2ccc(O)c(C(=O)O)c2)cc1: inactive
O=c1cc(N2CCOCC2)oc2c(-c3cccc4c3sc3ccccc34)cccc12: inactive
Nc1nc2c(ncn2COCCO)c(=O)[nH]1: inactive
CCCCCOC(=O)Nc1nc(=O)n([C@@H]2O[C@H](C)[C@@H](O)C2O)cc1F (some centres not stated): inactive

Prompt: Which outcome was entered for the compound O=C(Nc1nc2ccccc2n1CCN1CCOCC1)c1cccc([N+](=O)[O-])c1 in this test?
Response: inactive

Prompt: Which outcome was entered for the compound COc1ncc(-c2ccc3nccc(-c4ccnnc4)c3c2)cc1NS(=O)(=O)c1ccc(F)cc1F in this test?
Response: active

Prompt: Which outcome was entered for the compound O=C1CCc2ccc(OCCCCN3CCN(c4cccc(Cl)c4Cl)CC3)cc2N1 in this test?
Response: inactive

Prompt: Which outcome was entered for the compound CN1C(C(=O)Nc2ccccn2)=C(O)c2sc(Cl)cc2S1(=O)=O in this test?
Response: inactive

Prompt: Which outcome was entered for the compound C[C@]12CC[C@@H]3c4ccc(O)cc4CC[C@H]3[C@H]1C[C@@H](O)[C@H]2O in this test?
Response: inactive

Prompt: Which outcome was entered for the compound Cc1ccc(O)c(C(CCN(C(C)C)C(C)C)c2ccccc2)c1 (configuration not stated) in this test?
Response: inactive

Prompt: Which outcome was entered for the compound C[N+]1(C)[C@@H]2CC(OC(=O)[C@H](CO)c3ccccc3)C[C@H]1[C@H]1O[C@@H]12 (some centres not stated) in this test?
Response: inactive

Prompt: Which outcome was entered for the compound OC[C@H]1O[C@@H](Oc2ccc(O)cc2)[C@H](O)[C@@H](O)[C@H]1O in this test?
Response: inactive

Prompt: Which outcome was entered for the compound OC[C@H]1OC(O)C[C@@H](O)[C@H]1O (some centres not stated) in this test?
Response: inactive

Prompt: Which outcome was entered for the compound CC(C(=O)O)c1ccc2c(c1)CC(=O)c1ccccc1S2 (configuration not stated) in this test?
Response: active

Prompt: Which outcome was entered for the compound CN(C)CCCC1(c2ccc(F)cc2)OCc2cc(C#N)ccc21 (configuration not stated) in this test?
Response: inactive
